meta.source: patent US20120083476A1

# TARGET_DESC: FAAH (Homo sapiens, UniProt O00519)
# Sequence (O00519 1-579): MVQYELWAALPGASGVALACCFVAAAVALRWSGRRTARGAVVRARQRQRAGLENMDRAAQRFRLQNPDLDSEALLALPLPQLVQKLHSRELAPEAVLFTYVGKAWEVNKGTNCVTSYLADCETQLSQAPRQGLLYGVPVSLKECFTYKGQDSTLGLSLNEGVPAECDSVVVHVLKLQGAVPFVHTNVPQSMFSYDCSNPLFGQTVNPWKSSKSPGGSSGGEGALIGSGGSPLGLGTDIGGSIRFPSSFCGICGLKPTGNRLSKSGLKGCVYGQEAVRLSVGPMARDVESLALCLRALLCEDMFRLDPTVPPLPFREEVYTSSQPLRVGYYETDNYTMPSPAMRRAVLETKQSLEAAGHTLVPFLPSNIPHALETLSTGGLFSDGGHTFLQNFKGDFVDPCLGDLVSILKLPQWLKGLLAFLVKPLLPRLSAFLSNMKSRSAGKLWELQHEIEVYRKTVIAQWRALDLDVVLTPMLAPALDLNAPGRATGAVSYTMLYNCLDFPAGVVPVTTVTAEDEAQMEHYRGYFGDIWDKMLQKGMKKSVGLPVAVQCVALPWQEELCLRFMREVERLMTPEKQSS
# TEST_SUMMARY: Assay Method 1: human FAAH assay (3H-anandamide hydrolysis in cell homogenate)
# Type: biochemical
# Parameters: expressed in transfected cells; host or cells: SK-N-MC cells stably transfected with human FAAH cDNA (G418 selection); alternatively T84 cell pellets
Where a name gives a salt, the structure may show the parent alone.
Output True for records whose IC50 is lower than 3 µM, False for records at or above 3 µM.

- MOLECULE: "O=C(Nc1nnn[nH]1)N1CC2(CCN(Cc3cccc(Oc4ccc(Cl)cc4)c3)CC2)C1 [Example 64, trifluoroacetic acid salt]"
  CATEGORY: "False"
- MOLECULE: "O=C(Nc1cccnc1)N1CCC2(CCN(Cc3cccc(Oc4ccc(Cl)cc4)c3)CC2)C1 [Example 18]"
  CATEGORY: "False"
- MOLECULE: "O=C(Nc1cnc2cccnn12)N1CC2(CCN(Cc3cccc(Oc4ccc(Cl)cc4)c3)CC2)C1"
  CATEGORY: "True"
- MOLECULE: "O=C(Nc1cccnc1)N1CC2(CCCN(Cc3cccc(Oc4ccc(Cl)cc4)c3)C2)C1"
  CATEGORY: "False"
- MOLECULE: "O=C(Nc1cccnc1)N1CCC2(CCN(Cc3cccc(Oc4ccc(Cl)cc4)c3)CC2)C1 [Example 90, trifluoroacetic acid salt]"
  CATEGORY: "True"

Task: Answer whether the molecule Cc1ccncc1NC(=O)N1CC2(CCN(Cc3cccc(Oc4ccc(Cl)cc4)c3)CC2)C1 has IC50 strictly less than 3 µM
Output: True

Task: Answer whether the molecule O=C(Nc1ccncn1)N1CC2(CCN(Cc3cccc(Oc4ccc(Cl)cc4)c3)CC2)C1 [Example 43, trifluoroacetic acid salt] has IC50 strictly less than 3 µM
Output: False

* * *

Each entry below lists one item and its recorded pIC50 value.
# TARGET_DESC: FAAH (Homo sapiens)
# TEST_SUMMARY: Assay Method 1: human FAAH assay (3H-anandamide hydrolysis in cell homogenate)
# Type: biochemical
# Set-up: expressed in transfected cells; host or cells: SK-N-MC cells stably transfected with human FAAH cDNA (G418 selection); alternatively T84 cell pellets
# CONDITION_DESCRIPTION: read-out: Assay 1 IC50
# Protocol: A. Transfection of Cells with Human FAAH A 10-cm tissue culture dish with a confluent monolayer of SK-N-MC cells was split 2 days (d) prior to transfection. Using sterile technique, the media was removed and the cells were detached from the dish by the addition of trypsin. One fifth of the cells were then placed onto a new 10-cm dish. […] After 10 d, dishes were analyzed for surviving colonies of cells. […]
The read-out pIC50 is expressed as -log10 of concentration in moles per litre.

Consider the worked cases shown below.
- SMILES_INPUT: "O=C(Nc1cnc2ccccc2c1)N1CCC2(CCN(Cc3cccc(Oc4ccc(Cl)cc4)c3)CC2)CC1"
  TARGET_DESC: "FAAH (Homo sapiens)"
  pIC50: 7.15
- SMILES_INPUT: "O=C(Nc1ccc(-n2nccn2)nc1)N1CC2(CCN(Cc3cccc(Oc4ccc(Cl)cc4)c3)CC2)C1"
  TARGET_DESC: "FAAH (Homo sapiens)"
  pIC50: 7.70
- SMILES_INPUT: "O=C(Nc1cnccc1C(F)(F)F)N1CC2(CCN(Cc3cccc(Oc4ccc(Cl)cc4)c3)CC2)C1"
  TARGET_DESC: "FAAH (Homo sapiens)"
  pIC50: 6.38

Pending compound:
Task: Notebook: pull reported pIC50 for FAAH (Homo sapiens), entry O=C(Nc1cccnc1)N1CC2(CCN(Cc3ccc(Cl)c(Cl)c3)CC2)C1
Output: 5.22

* * *

# TARGET_DESC: FAAH (Homo sapiens, UniProt O00519)
# TEST_SUMMARY: Assay Method 1: human FAAH assay (3H-anandamide hydrolysis in cell homogenate)
# Format: biochemical
# Parameters: expressed in transfected cells; host or cells: SK-N-MC cells stably transfected with human FAAH cDNA (G418 selection); alternatively T84 cell pellets
# CONDITION_DESCRIPTION: read-out: Assay 1 IC50
# Description: A. Transfection of Cells with Human FAAH A 10-cm tissue culture dish with a confluent monolayer of SK-N-MC cells was split 2 days (d) prior to transfection. Using sterile technique, the media was removed and the cells were detached from the dish by the addition of trypsin. One fifth of the cells were then placed onto a new 10-cm dish. […] After 10 d, dishes were analyzed for surviving colonies of cells. […]
Where a name gives a salt, the structure may show the parent alone.
OBSERVATION_TYPE: IC50 (µM)
Report the value in µM with no unit label.

Consider the worked cases shown below.
- COMPOUND: "O=C(Nc1cccnn1)N1CC2(CCN(Cc3cccc(Oc4ccc(Cl)cc4)c3)CC2)C1 [Example 44, trifluoroacetic acid salt]"
  OBSERVATION_TYPE: "IC50"
  NUMBER: 0.43
- COMPOUND: "O=C(Nc1cccnc1)N1CC2(CCN(Cc3cccc(Oc4ccc(S(=O)(=O)C(F)(F)F)cc4)c3)CC2)C1"
  OBSERVATION_TYPE: "IC50"
  NUMBER: 1.7
- COMPOUND: "N#Cc1ccc(NC(=O)N2CC3(CCN(Cc4cccc(Oc5ccc(Cl)cc5)c4)CC3)C2)cn1 [Example 50, trifluoroacetic acid salt]"
  OBSERVATION_TYPE: "IC50"
  NUMBER: 0.82
- COMPOUND: "O=C(Nc1ccc(N2CCOCC2)nc1)N1CC2(CCN(Cc3cccc(Oc4ccc(Cl)cc4)c3)CC2)C1 [Example 55, trifluoroacetic acid salt]"
  OBSERVATION_TYPE: "IC50"
  NUMBER: 6.93
- COMPOUND: "O=C(Nc1cccnc1)N1CC2(CCN(Cc3cccc(Oc4ccc(OCC(F)(F)F)cc4)c3)CC2)C1"
  OBSERVATION_TYPE: "IC50"
  NUMBER: 8
- COMPOUND: "O=C(Nc1cnccc1Cl)N1CC2(CCN(Cc3cccc(Oc4ccc(Cl)cc4)c3)CC2)C1 [Example 53, trifluoroacetic acid salt]"
  OBSERVATION_TYPE: "IC50"
  NUMBER: 0.01
- COMPOUND: "N#Cc1ccncc1NC(=O)N1CC2(CCN(Cc3cccc(Oc4ccc(Cl)cc4)c3)CC2)C1"
  OBSERVATION_TYPE: "IC50"
  NUMBER: 0.11
- COMPOUND: "O=C(Nc1cccnc1)N1CC2(CCN(Cc3cccc(Oc4ccccc4)c3)CC2)C1"
  OBSERVATION_TYPE: "IC50"
  NUMBER: 0.1

Task: Name the recorded IC50 for O=C(Nc1ccc(F)nc1)N1CC2(CCN(Cc3cccc(Oc4ccc(Cl)cc4)c3)CC2)C1 [Example 58, trifluoroacetic acid salt] .
Output: 0.3

Task: Name the recorded IC50 for O=C(Nc1cccnc1)N1CCC2(CCCN2Cc2cccc(Oc3ccc(Cl)cc3)c2)CC1 .
Output: 1.1

Task: Name the recorded IC50 for Cc1nn(C)c2ncc(NC(=O)N3CC4(CCN(Cc5cccc(Oc6ccc(Cl)cc6)c5)CC4)C3)cc12 [Example 75, trifluoroacetic acid salt] .
Output: 2.5

* * *

Each entry below lists one item and its recorded IC50 value.
# TARGET_DESC: FAAH (Homo sapiens, UniProt O00519)
# TEST_SUMMARY: Assay Method 1: human FAAH assay (3H-anandamide hydrolysis in cell homogenate)
# Assay type: biochemical
# Parameters: expressed in transfected cells; host or cells: SK-N-MC cells stably transfected with human FAAH cDNA (G418 selection); alternatively T84 cell pellets
# CONDITION_DESCRIPTION: read-out: Assay 1 IC50
Counter-ions that a name gives are not always drawn.
Report the value in nM with no unit label.

Consider the worked cases shown below.
- COMPOUND: "O=C(Nc1cccnc1)N1CC2(CCN(Cc3cccc(Oc4ccccc4Cl)c3)CC2)C1"
  UNITS_LABEL: "nM"
  NUMBER: 30
- COMPOUND: "O=C(Nc1ccc(-n2nccn2)nc1)N1CCC2(CC1)CN(Cc1cccc(Oc3ccc(Cl)cc3)c1)C2"
  UNITS_LABEL: "nM"
  NUMBER: 10
- COMPOUND: "O=C(Nc1ccc(-n2nccn2)nc1)N1CC2(CCN(Cc3ccc4c(c3)OC(F)(F)O4)CC2)C1"
  UNITS_LABEL: "nM"
  NUMBER: 4000

Pending compound:
Task: Name the recorded IC50 for COc1nccc(NC(=O)N2CC3(CCN(Cc4cccc(Oc5ccc(Cl)cc5)c4)CC3)C2)n1 [Example 72, trifluoroacetic acid salt] .
Output: 1700
